biological target: FITC-labeled CFTRpS753pS768 peptide (no 14-3-3) (Homo sapiens); construct: made in house; host or cells: synthetic peptide; test: Dose-response FP control assay in the absence of 14-3-3; format: binding; details: No 14-3-3; compound 2.44141e-7 M
Sequence (P13569 747-774 limits assumed): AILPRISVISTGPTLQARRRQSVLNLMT
Entry flag: True if FP signal reaches 5; False if it does not.

These recorded examples may help you get a feel for the data.
Could you please find out whether N=C(N)NCCCC1NC(=O)C(CCCCN)NCc2ccccc2Sc2ccccc2CNC(=O)C(Cc2ccc(O)cc2)NC1=O (stereo not drawn) has FP signal that meets 5 or exceeds it?
False

Could you please find out whether N=C(N)NCCCC1NCc2ccccc2Sc2ccccc2CNC(=O)C(Cc2ccc(O)cc2)NC(=O)C(CCCN)NC1=O (stereo not drawn) has FP signal that meets 5 or exceeds it?
True

Could you please find out whether C=CC(C)(C)OC[C@H]1O[C@H](O[C@@H]2C3=C([C@H](C)COC(C)=O)C[C@H](O)[C@]3(C)/C=C3/[C@@H](COC)CC[C@H]3[C@@H](C)[C@H]2O)[C@H](O)[C@@H](OC(C)=O)[C@@H]1O [FC-A, fusicoccin A, reference compound] has FP signal that meets 5 or exceeds it?
False

Note: attention shifts to another entry.
Could you please find out whether CN1CC(=O)NC(CCCNC(=N)N)C(=O)NC(CCC(N)=O)C(=O)NC(CCCNC(=N)N)C(=O)NCc2ccccc2-c2cccc(c2)C1 (stereo not drawn) has FP signal that meets 5 or exceeds it?
True

* * *

target: 14-3-3β/CFTRpS753pS768 complex (Homo sapiens, UniProt P13569+P31946); construct: His6 (cleaved yes); made in house; peptide synthetic; test: Dose-response fluorescence polarization (FP) assay, compound titration; assay type: binding; settings: With 14-3-3; compound 0.001 M
Sequence (P31946 whole entry): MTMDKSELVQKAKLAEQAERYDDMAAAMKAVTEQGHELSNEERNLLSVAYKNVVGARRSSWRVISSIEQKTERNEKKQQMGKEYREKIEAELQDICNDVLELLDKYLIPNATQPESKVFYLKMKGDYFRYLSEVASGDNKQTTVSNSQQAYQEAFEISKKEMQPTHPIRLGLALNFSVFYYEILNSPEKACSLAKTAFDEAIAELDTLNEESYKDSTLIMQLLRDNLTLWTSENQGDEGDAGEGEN
readoutType: FP signal
Returns: the value as a bare number; no unit string appended.

# annotated cases, reported FP signal shown
Which FP signal value belongs to CN1CC(=O)NC(CCCNC(=N)N)C(=O)NC(CCC(N)=O)C(=O)NC(CCCNC(=N)N)C(=O)NCc2ccccc2-c2cccc(c2)C1 (stereo not drawn) [CY007491] ?
240

Which FP signal value belongs to NCCCC1NCc2ccccc2Sc2ccccc2CNC(=O)C(Cc2c[nH]c3ccccc23)NC(=O)C(Cc2ccccc2)NC1=O (stereo not drawn) [CY007345] ?
248

Next:
Which FP signal value belongs to CC1NC(=O)C(CCCNC(=N)N)NC(=O)C2CCCN2Cc2cccc(c2)-c2ccccc2CNC(=O)C(CCCNC(=N)N)NC1=O (stereo not drawn) [CY007476] ?
257

Which FP signal value belongs to NCCCCC1NCc2ccccc2Sc2ccccc2CNC(=O)C(Cc2cccc(Cl)c2)NC(=O)C(Cc2ccc(O)cc2)NC1=O (stereo not drawn) [CY007288] ?
224

Which FP signal value belongs to N=C(N)NCCCC1NCc2ccccc2Sc2ccccc2CNC(=O)C(Cc2ccc(O)cc2)NC(=O)C(CCCN)NC1=O (stereo not drawn) [CY007424] ?
271

Which FP signal value belongs to N=C(N)NCCCC1NC(=O)C(CCC(N)=O)NC(=O)C(CCCNC(=N)N)NC(=O)C2CCCN2Cc2cccc(c2)-c2ccccc2CNC1=O (stereo not drawn) [CY007455] ?
244

* * *

Here the recorded FP signal is given for each entry.
target: FITC-labeled CFTRpS753pS768 peptide (no 14-3-3) (Homo sapiens); construct: made in house; host or cells: synthetic peptide; assay: Dose-response FP control assay in the absence of 14-3-3; assay type: binding; conditions: No 14-3-3; compound 6.10352e-8 M

# annotated cases, reported FP signal shown
Which FP signal value belongs to CN1CC(=O)NC(CCCNC(=N)N)C(=O)NC(CCC(N)=O)C(=O)NC(CCCNC(=N)N)C(=O)NCc2ccccc2-c2cccc(c2)C1 (stereo not drawn) ?
5

Which FP signal value belongs to C=CC(C)(C)OC[C@H]1O[C@H](O[C@@H]2C3=C([C@H](C)COC(C)=O)C[C@H](O)[C@]3(C)/C=C3/[C@@H](COC)CC[C@H]3[C@@H](C)[C@H]2O)[C@H](O)[C@@H](OC(C)=O)[C@@H]1O [FC-A, fusicoccin A, reference compound] ?
1

Which FP signal value belongs to NCCCC1NCc2ccccc2Sc2ccccc2CNC(=O)C(Cc2c[nH]c3ccccc23)NC(=O)C(Cc2ccccc2)NC1=O (stereo not drawn) ?
7

Next:
Which FP signal value belongs to N=C(N)NCCCC1NC(=O)C(CCC(N)=O)NC(=O)C(CCCNC(=N)N)NC(=O)C2CCCN2Cc2cccc(c2)-c2ccccc2CNC1=O (stereo not drawn) [CY007458] ?
5

Which FP signal value belongs to N=C(N)NCCCC1NC(=O)C(CCCCN)NCc2ccccc2Sc2ccccc2CNC(=O)C(Cc2ccc(O)cc2)NC1=O (stereo not drawn) ?
5

Which FP signal value belongs to CC1NC(=O)C(CCCNC(=N)N)NC(=O)C2CCCN2Cc2cccc(c2)-c2ccccc2CNC(=O)C(CCCNC(=N)N)NC1=O (stereo not drawn) ?
6

Which FP signal value belongs to NCCCCC1NCc2ccccc2Sc2ccccc2CNC(=O)C(Cc2cccc(Cl)c2)NC(=O)C(Cc2ccc(O)cc2)NC1=O (stereo not drawn) ?
4

Which FP signal value belongs to N=C(N)NCCCC1NC(=O)C(CCC(N)=O)NC(=O)C(CCCNC(=N)N)NC(=O)C2CCCN2Cc2cccc(c2)-c2ccccc2CNC1=O (stereo not drawn) [CY007455] ?
5

Which FP signal value belongs to N=C(N)NCCCC1NCc2ccccc2Sc2ccccc2CNC(=O)C(Cc2ccc(O)cc2)NC(=O)C(CCCN)NC1=O (stereo not drawn) ?
5
